Molecular target: T1, RBFOX1 RRM RbFoxmut (Fox-RRM*) (Homo sapiens, UniProt Q9NWB1 109-208, R118D;E147R;N151S;E152T)
T1 sequence: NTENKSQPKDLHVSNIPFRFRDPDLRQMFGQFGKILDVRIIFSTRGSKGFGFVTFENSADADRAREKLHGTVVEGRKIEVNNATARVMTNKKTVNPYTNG
Assay: EMSA; HiTS-Eq, 1 nM pool, 10 min; buffer printed only for the single-RNA assays: 10 mM Tris pH 7.5, 150 mM NaCl, 3.4 mM EDTA, 0.001% NP-40, 30 C
Details: tags: His6 N-terminal (pET28a); label: 5' 32P
Whole data set: some 16,000 sequences, median “ka relative to ugcaugu” near 0.096, cut for the highest 2% near 0.35. The sample as a whole holds a higher share of the highest values than the screen did.
binders and their reported binding signal
Endpoint name: binding signal

INSERT INTO measurements (binder, meas_value) VALUES
  ('UCGGAGC (DNA:RNA) RNA: GGGAGACCGGAAUUCAGAUUGUCCUCGGAGCUUAAAUCCCGUCGUAGCCACCA DNA 1: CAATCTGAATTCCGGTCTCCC DNA 2: TGGTGGCTACGACGGGATT', '0.0837 KA relative to UGCAUGU'),
  ('GCAUGCC (DNA:RNA) RNA: GGGAGACCGGAAUUCAGAUUGUCCGCAUGCCUUAAAUCCCGUCGUAGCCACCA DNA 1: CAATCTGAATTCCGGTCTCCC DNA 2: TGGTGGCTACGACGGGATT', '0.651 KA relative to UGCAUGU');
